tested on: IFVA/Weiss/43; assay: cytopathic effect (CPE) antiviral test in MDCK cells, IFVA/Weiss/43; format: cell-based, influenza virus; details: unidentified influenza virus, MDCK, 120 h, read-out: EC50(IFVA/Weiss/43), MDCK cells, CPE method, CCK-8 cell viability, 5 days
Metric: log10 EC50 (log10 of the value in nM)

{"Compound": "CC(=O)Nc1ccc2oc(-c3ccnc(C(=O)N4C5CC4CN(C(c4ccccc4)c4nnn(C)n4)C5)c3)nc2c1 (stereo not shown)", "Assay Value": 2.74}
{"Compound": "O=C(Nc1ccc2oc(-c3ccnc(C(=O)N4CCN(C(c5ccccc5)c5nnn(C(F)F)n5)CC4)c3)nc2c1)C1CC1 (stereo not shown) [Compound 36]", "Assay Value": 0.60}
{"Compound": "CC(=O)Nc1ccc2oc(-c3ccnc(C(=O)N4C5CCC4CN(C(c4ccccc4)c4nnn(CCF)n4)C5)c3)nc2c1 (stereo not shown)", "Assay Value": 1.40}
{"Compound": "CC(=O)Nc1ccc2oc(-c3ccnc(C(=O)N4CCC(=C(c5ccccc5)c5nnn(C)n5)CC4)c3)nc2c1", "Assay Value": 2.05}
{"Compound": "O=C(c1cc(-c2nc3cc(N4CCCC4)ccc3o2)ccn1)N1CCN(C(c2ccccc2)c2nnn(C(F)F)n2)CC1 (stereo not shown)", "Assay Value": 1.49}
{"Compound": "CC(=O)Nc1ccc2nc(-c3ccnc(C(=O)N4CCN(C(c5ccccc5)c5nnn(C(F)F)n5)CC4)c3)oc2c1 (stereo not shown) [Compound 70]", "Assay Value": 1.51}
{"Compound": "Cn1nnc(C(c2ccccc2)N2CCN(C(=O)c3cc(-c4nc5cc(NC(=O)C6(F)CC6)ccc5o4)ccn3)CC2)n1 (stereo not shown)", "Assay Value": 1.38}
{"Compound": "O=C(Nc1ccc2oc(-c3ccnc(C(=O)N4CCN(C(c5ccccc5)c5nnn(C(F)F)n5)CC4)c3)nc2c1)[C@H]1C[C@@H]1F (mixture of isomers) [Compound 95]", "Assay Value": 1.23}
{"Compound": "Cn1nnc(C(c2ccccc2)N2CC3CC(C2)N3C(=O)c2cc(-c3nc4cc(NC(=O)C5CC5)ccc4o3)ccn2)n1 (stereo not shown)", "Assay Value": 2.21}
{"Compound": "O=C(Nc1ccc2oc(-c3ccnc(C(=O)N4CCN([C@H](c5ccccc5)c5nnn(C(F)F)n5)CC4)c3)nc2c1)[C@@H]1C[C@@H]1F", "Assay Value": 0.30}
{"Compound": "Cn1nnc(C(c2ccccc2)N2CCN(C(=O)c3cc(-c4nc5cc(NC(=O)[C@H]6C[C@@H]6F)ccc5o4)ccn3)CC2)n1 (stereo partly shown)", "Assay Value": 1.52}
{"Compound": "O=C(Nc1ccc2oc(-c3ccnc(C(=O)N4CCN(C(c5ccccc5)c5nnn(C(F)F)n5)CC4)c3)nc2c1)[C@H]1C[C@@H]1F (stereo partly shown) [Compound 32]", "Assay Value": 1.41}

====

system: IFVA/Weiss/43; experiment: cytopathic effect (CPE) antiviral test in MDCK cells, IFVA/Weiss/43; assay type: cell-based, influenza virus; details: unidentified influenza virus, MDCK, 120 h, read-out: EC50(IFVA/Weiss/43), MDCK cells, CPE method, CCK-8 cell viability, 5 days
Metric: EC50 (µM)

{"Compound": "Cn1nnc(C(c2ccccc2)N2CCN(C(=O)c3cc(-c4nc5cc(N6CCOC6=O)ccc5o4)ccn3)CC2)n1 (stereo not drawn) [Compound 50]", "Metric": "EC50", "Unit Symbol": "µM", "Relation": "=", "Assay Value": 0.242}
{"Compound": "Cn1nnc(C(c2ccccc2)N2CCN(C(=O)c3cc(-c4nc5cc(OC(F)F)ccc5o4)ccn3)CC2)n1 (stereo not drawn) [Compound 44]", "Metric": "EC50", "Unit Symbol": "µM", "Relation": "=", "Assay Value": 0.11}
{"Compound": "CC(=O)Nc1ccc2nc(-c3ccnc(C(=O)N4CCN(C(c5ccccc5)c5nnn(C(F)F)n5)CC4)c3)oc2c1 (racemic) [Compound 90]", "Metric": "EC50", "Unit Symbol": "µM", "Relation": "=", "Assay Value": 0.028}
{"Compound": "CC(=O)Nc1ccc2oc(-c3ccnc(C(=O)N4CCN(C(c5ccccc5)c5nnn(C(F)F)n5)CC4)c3F)nc2c1 (racemic) [Compound 79]", "Metric": "EC50", "Unit Symbol": "µM", "Relation": "=", "Assay Value": 0.007}
{"Compound": "CC(=O)Nc1ccc2oc(-c3ccnc(C(=O)N4CCC5(CC4)CN(C(c4ccccc4)c4nnn(C)n4)C5)c3)nc2c1 (stereo not drawn) [Compound 13]", "Metric": "EC50", "Unit Symbol": "µM", "Relation": ">", "Assay Value": 10}
{"Compound": "[2H]C([2H])([2H])C(C(=O)Nc1ccc2oc(-c3ccnc(C(=O)N4CCN(C(c5ccccc5)c5nnn(C(F)F)n5)CC4)c3)nc2c1)C([2H])([2H])[2H] (racemic) [Compound 109]", "Metric": "EC50", "Unit Symbol": "µM", "Relation": "=", "Assay Value": 0.006}
